# Test system: Staphylococcus aureus 209P Stf
# test_protocol: in vitro MIC, agar streak method
# Type: cell-based
# measurement_context: Heart infusion agar

>  <molecule>
COC(=O)C1c2cc3c(c(O)c2C(OC2CC(N(C)C)C(O)C(C)O2)CC1(O)CC(C)=O)C(=O)c1c(O)cccc1C3=O (stereo not shown)

>  <target_or_system>
Staphylococcus aureus 209P Stf

>  <MIC>
25 µg/mL

$$$$
>  <molecule>
COC(=O)C1c2cc3c(c(O)c2C(OC2CC(N(C)C)C(O)C(C)O2)CC1(C)O)C(=O)c1c(O)cccc1C3=O (stereo not shown)

>  <target_or_system>
Staphylococcus aureus 209P Stf

>  <MIC>
12.5 µg/mL

$$$$
>  <molecule>
COC(=O)C1c2cc3c(c(O)c2C(OC2CC(N(C)C)C(OC4CC(O)C(O)C(C)O4)C(C)O2)CC1(O)CC(C)=O)C(=O)c1c(O)cccc1C3=O (stereo not shown)

>  <target_or_system>
Staphylococcus aureus 209P Stf

>  <MIC>
6.25 µg/mL

$$$$
>  <molecule>
COC(=O)C1c2cc3c(c(O)c2C(OC2CC(N(C)C)C(OC4CC(O)C(O)C(C)O4)C(C)O2)CC1(C)O)C(=O)c1c(O)cccc1C3=O (stereo not shown)

>  <target_or_system>
Staphylococcus aureus 209P Stf

>  <MIC>
6.25 µg/mL

$$$$
